test system: kochia (Kochia scoparia); assay: Test B pre-/postemergence plant response; assay type: in vivo; conditions: Postemergence, 62 g ai/ha; scale 0 (no effect) to 100 (complete control); 13 to 15 days
OBSERVABLE: Plant response rating, Kochia
Answer with the value's number alone.

In the examples that follow, each entry is paired with its recorded Plant response rating, Kochia.
[[record]]
compound = "O=C1CCCC(O)=C1C(=O)c1cnc(-c2ccsc2)n(-c2ccccc2)c1=O [Compound 56]"
observable = "Plant response rating, Kochia"
experimental_result = 95

[[record]]
compound = "CCCCc1ncc(C(=O)C2=C(O)CCCC2=O)c(=O)n1-c1cccc(C)c1 [Compound 63]"
observable = "Plant response rating, Kochia"
experimental_result = 25

[[record]]
compound = "Cc1cc(C)cc(-n2c(-c3ccccc3)ncc(C(=O)C3=C(O)CCCC3=O)c2=O)c1 [Compound 33]"
observable = "Plant response rating, Kochia"
experimental_result = 80

[[record]]
compound = "Cc1ccc(-n2c(-c3ccccc3)ncc(C(=O)C3=C(O)CCCC3=O)c2=O)cc1 [Compound 8]"
observable = "Plant response rating, Kochia"
experimental_result = 100


Lookup: Fill blank: measured Plant response rating, Kochia of the compound O=C1CCCC(O)=C1C(=O)c1cnc(-c2cccc(Cl)c2)n(-c2ccc(Cl)cc2)c1=O [Compound 64] is ____.
Found: 55

The origin of these recorded values is patent US8952024B2.
